Reported MED values for a set of molecules
# Test system: human LDL receptor promoter
# test: in vitro Luciferase Activity Test (LDL receptor promoter-luciferase reporter in recombinant CHO cells)
# Type: cell-based
# Parameters: unit not given here
# assay setup: minimum effective dose (molar concentration, unit not given); tests using 15% luciferase activity cutoff point (footnote 2); 24 hr, assay medium with 0.5 µg/ml 25-hydroxycholesterol

| molecule | MED |
| --- | --- |
| CC(C)CCC[C@@H](C)[C@H]1CC[C@H]2[C@@H]3CCC4[C@H](Cc5ccc(OCc6ccccc6)cc5)[C@H](O)CC[C@]4(C)[C@H]3CC[C@]12C (stereo partly shown) | 8.6 |
| CC(C)CCC[C@@H](C)[C@H]1CC[C@H]2[C@@H]3CCC4[C@H](Cc5ccc(O)cc5)[C@H](O)CC[C@]4(C)[C@H]3CC[C@]12C (stereo partly shown) [Example 36, 4a-(4-hydroxybenzyl)cholestan-3a-ol] | 40 |
| C[C@H](CCCN(C)C)[C@H]1CC[C@H]2[C@@H]3CC[C@@H]4C[C@H](O)CC[C@]4(C)[C@H]3CC[C@]12C [Example 51, 3a-hydroxy-25-azacoprostane] | 1.28 |
| CC(C)CCC[C@@H](C)[C@H]1CC[C@H]2[C@@H]3CCC4[C@H](Cc5ccc(CO)cc5)[C@H](O)CC[C@]4(C)[C@H]3CC[C@]12C (stereo partly shown) | 9.8 |
| COC(=O)c1ccc(C[C@H]2C3CC[C@H]4[C@@H]5CC[C@H]([C@H](C)CCCC(C)C)[C@@]5(C)CC[C@@H]4[C@@]3(C)CC[C@H]2O)cc1 (stereo partly shown) | 14 |
| C=CC[C@@H]1C(=O)/C(=C/O)C[C@]2(C)[C@H]3CC[C@]4(C)[C@@H]([C@H](C)CCCC(C)C)CC[C@H]4[C@@H]3CC[C@@H]12 | 11.0 |
| CC(C)CCC[C@@H](C)[C@H]1CC[C@H]2[C@@H]3CCC4[C@H](Cc5ccc(C(F)(F)F)cc5)[C@H](O)CC[C@]4(C)[C@H]3CC[C@]12C (stereo partly shown) | 9.1 |
| C=CC[C@H]1C2CC[C@@H]3[C@H](CC[C@]4(C)C(OCCCC(C)(C)C)CC[C@@H]34)[C@@]2(C)CC[C@H]1O (stereo partly shown) | 46.5 |
| CC(C)CCC[C@@H](C)[C@H]1CC[C@H]2[C@@H]3CCC4[C@H](Cc5ccc(Cl)c(Cl)c5)[C@H](O)CC[C@]4(C)[C@H]3CC[C@]12C (stereo partly shown) | 9.1 |
| CC(C)CCC[C@@H](C)[C@H]1CC[C@H]2[C@@H]3CCC4[C@H](Cc5ccc(C(=O)O)cc5)[C@H](O)CC[C@]4(C)[C@H]3CC[C@]12C (stereo partly shown) | 4.8 |
| CC(C)CCC[C@@H](C)[C@H]1CC[C@H]2[C@@H]3CCC4[C@H](Cc5ccc(OC(F)(F)F)cc5)[C@H](O)CC[C@]4(C)[C@H]3CC[C@]12C (stereo partly shown) | 8.9 |
| C=CC[C@H]1C2=CC[C@H]3[C@@H]4CC[C@H]([C@H](C)CCCC(C)C)[C@@]4(C)CC[C@@H]3[C@@]2(C)CC[C@H]1O | 2.3 |
| CC(C)CCC[C@@H](C)[C@H]1CC[C@H]2[C@@H]3CCC4[C@H](Cc5ccc(Cl)cc5)[C@H](O)CC[C@]4(C)[C@H]3CC[C@]12C (stereo partly shown) | 9.7 |
